The values you see were collected from paper PMC7570694.

target: AChE (Electrophorus electricus, UniProt O42275); experiment: AChE inhibition, modified Ellman spectrophotometric method; type: biochemical; settings: read-out: AChE % Inhibition 10^−3 M
Sequence (O42275 24-633): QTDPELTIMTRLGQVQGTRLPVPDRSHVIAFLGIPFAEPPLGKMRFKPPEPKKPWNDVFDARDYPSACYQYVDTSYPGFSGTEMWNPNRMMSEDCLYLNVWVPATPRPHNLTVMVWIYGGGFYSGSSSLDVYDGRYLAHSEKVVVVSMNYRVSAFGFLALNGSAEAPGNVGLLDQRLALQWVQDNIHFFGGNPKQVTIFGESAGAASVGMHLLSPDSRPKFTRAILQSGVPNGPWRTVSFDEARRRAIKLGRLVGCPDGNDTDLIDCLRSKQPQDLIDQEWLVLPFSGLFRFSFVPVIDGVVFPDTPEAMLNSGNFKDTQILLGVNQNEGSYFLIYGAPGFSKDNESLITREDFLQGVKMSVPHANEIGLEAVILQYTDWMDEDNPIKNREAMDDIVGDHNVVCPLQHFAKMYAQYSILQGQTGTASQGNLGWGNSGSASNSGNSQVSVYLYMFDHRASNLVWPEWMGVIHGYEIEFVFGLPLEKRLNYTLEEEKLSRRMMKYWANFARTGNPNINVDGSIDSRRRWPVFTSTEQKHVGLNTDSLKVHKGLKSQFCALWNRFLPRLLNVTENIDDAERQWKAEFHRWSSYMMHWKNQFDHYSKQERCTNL
ENDPOINT: inhibition at 1000 µM (%)

INSERT INTO results (entry_smiles, value_reported) VALUES
  ('FC(F)(F)c1ccc(-c2csc(NN=Cc3ccc4c(c3)OCO4)n2)cc1', 77.6),
  ('COc1cc(C=NNc2nc(-c3ccc(C(F)(F)F)cc3)cs2)cc(OC)c1OC', 65.3),
  ('COc1ccc(O)c(C=NNc2nc(-c3ccc(C(F)(F)F)cc3)cs2)c1', 91.3);
